Cited source: PubChem BioAssay AID1159580

Catalogue of normalized growth values
- EXPERIMENTAL DETAILS: chemical genetic growth profiling, strain panel (AID 1159580);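 also: tested at 20 µM; growth read once vehicle control cultures reached saturation at 30 °C; 1 = growth at the plate median or of vehicle wells; lower values mean less growth of the strain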
- STUDY CONDITIONS: S. cerevisiae deletion strains, growth OD, locus YCL016C, strain dcc1, hits give low values
About 2,000 (36%) of roughly 5,500 compounds were called active. Inconclusive results (about 18%) are left out. Some of the results follow.

{"columns": ["COMPOUND", "normalized growth"],
 "data": [
  ["CCOc1ccc(Cc2nccc3cc(OCC)c(OCC)cc23)cc1OCC", 0.981],
  ["COc1cc(OC)c(C(C)=O)c(O)c1C", 0.956],
  ["CCOC(=O)C1=C(C)NC(C)=C(C(=O)OC)C1c1cccc([N+](=O)[O-])c1 (stereo not given)", 1.01],
  ["CC(=O)OCC(=O)[C@@]1(O)CCC2C3CCC4=CC(=O)CC[C@]4(C)[C@@]3(F)[C@@H](O)C[C@@]21C (stereo not given in full)", 1.02],
  ["COc1c(O)cc(O)cc1O", 1.01],
  ["CC(=O)OC1CCC2C3CCc4cc(O)ccc4C3CCC12C (stereo not given)", 0.954],
  ["COc1cc(OC)c2c(c1Cl)OC1(C2=O)C(O)=CC(=O)CC1C (stereo not given)", 1.01],
  ["O=C1c2ccccc2C(=O)c2c1ccc(O)c2O", 0.564],
  ["COc1cc(O)c(C(C)=O)c(OC)c1", 1.01],
  ["O=C(CCCN1CC=C(n2c(=O)[nH]c3ccccc32)CC1)c1ccc(F)cc1", 1],
  ["CC1(C)S[C@@H]2[C@H](NC(=O)COc3ccccc3)C(=O)N2[C@H]1C(=O)O", 1.02],
  ["Nc1ncnc2c1ncn2[C@@H]1O[C@H](CO)[C@@H](O)[C@@H]1O", 1],
  ["Cc1cccc(N(C)C(=S)Oc2ccc3ccccc3c2)c1", 0.986],
  ["CCS(=O)(=O)CCn1c([N+](=O)[O-])cnc1C", 1.02],
  ["CC(C)CCCC(C)[C@H]1CCC2C3CC[C@H]4CC(=O)CC[C@]4(C)C3CC[C@@]21C (stereo not given in full)", 0.995],
  ["Cn1c(=O)[nH]c(=O)c2[nH]cnc21", 0.987],
  ["C[N+]1(C)C2CC[C@H]1CC(OC(=O)C(O)c1ccccc1)C2 (stereo not given in full)", 0.971],
  ["O=C1c2ccccc2C(=O)c2c(O)c(O)cc(O)c21", 0.492],
  ["CCCCCN=C(N)N/N=C\\c1c[nH]c2ccc(OC)cc12", 0.985],
  ["COc1ccc2c(=O)c(CC(=O)O)coc2c1", 1.04],
  ["CSCCC(NC=O)C(=O)NC(CC(C)C)C(=O)NC(Cc1ccccc1)C(=O)O (stereo not given)", 1],
  ["CC(=O)OC1CCC23C(=O)OC45CCC(C6=CC(=O)OC6)C4(C)CCC2C5CCC3(O)C1 (stereo not given)", 1.04],
  ["O=c1ccc2ccc(O)c(O)c2o1", 0.996],
  ["CC(=O)O[C@H]1CC2CCC3C(CC[C@@]4(C)C3C[C@H]([N+]3(C)CCCCC3)[C@@H]4OC(C)=O)[C@@]2(C)C[C@@H]1[N+]1(C)CCCCC1 (stereo not given in full)", 1.02],
  ["CCCc1nc(C(C)(C)O)c(C(=O)OCc2oc(=O)oc2C)n1Cc1ccc(-c2ccccc2-c2nn[nH]n2)cc1", 0.994],
  ["C[C@]12C=CC(=O)C=C1CCC1C2CC[C@]2(C)C(=O)CCC12 (stereo not given in full)", 0.976],
  ["CC(=O)Oc1ccc2c(c1)CCC1C2CC[C@@]2(C)C1CC[C@@H]2OC(C)=O (stereo not given in full)", 0.991],
  ["OCCN1CCN(CCCN2c3ccccc3Sc3ccc(Cl)cc32)CC1", 0.994],
  ["C[C@]12CCC3C(CC[C@H]4CC(=O)CC[C@]34C)C1CCC2=O (stereo not given in full)", 0.94],
  ["Fc1ccc(C(c2ccc(F)cc2)N2CCN(C/C=C/c3ccccc3)CC2)cc1", 0.234],
  ["CN1CCN(C(c2ccccc2)c2ccccc2)CC1", 0.973],
  ["O=C1c2ccc(O)c(O)c2C(=O)c2c(O)ccc(O)c21", 0.695],
  ["COc1cc(O)c(C)c(O)c1", 1],
  ["COc1cc(O)c(C(=O)O)c(O)c1", 0.991],
  ["Cc1cc(O)c2c(c1O)C(=O)c1c(O)cc(C)c(O)c1C2=O", 0.978],
  ["CC1=C2CCC3C(CC[C@]4(C)C(=O)CCC34)[C@@]2(C)CCC1=O (stereo not given in full)", 0.947],
  ["COc1c2occc2cc2ccc(=O)oc12", 0.888],
  ["CCCCC(=O)O[C@H]1CCC2C3CCc4cc(O)ccc4C3CC[C@@]21C (stereo not given in full)", 0.979],
  ["N#Cc1ccc2c(c1)N(CCCN1CCC(O)CC1)c1ccccc1S2", 0.987],
  ["C[C@H]1C(=O)O[C@@H]2CCN3CC=C(COC(=O)[C@](C)(O)[C@]1(C)O)[C@H]23", 0.999],
  ["CCCCC/C=C\\C/C=C\\C/C=C\\C/C=C\\CCCC(=O)O", 0.974],
  ["CCCCC(=O)N(Cc1ccc(-c2ccccc2-c2nn[nH]n2)cc1)[C@H](C(=O)O)C(C)C", 0.98],
  ["Cn1cnc([N+](=O)[O-])c1Sc1ncnc2nc[nH]c12", 1.04],
  ["O=C1OC(=O)C2C3CCC(O3)C12 (stereo not given)", 1.03],
  ["Cc1ncc([N+](=O)[O-])n1CCO", 0.968]
]}
